Attribute: IC50
System: Rattenlebermikrosomen
Test: Inhibition of microsomal lipid peroxidation (malondialdehyde/thiobarbituric acid)
Format: biochemical, Ratte
Conditions: rat liver microsomes, FeSO₄ start, 10 min 37°C; read-out: IC50 Mikrosomale Lipidperoxidation

Worked examples follow.
CCOP(=O)(OCC)C(Nc1ncccn1)c1cc(C(C)(C)C)c(O)c(C(C)(C)C)c1 (stereo not drawn); 2900 nM
CCCCOP(=O)(OCCCC)C(NC1CCCCC1)c1cc(C(C)(C)C)c(O)c(C(C)(C)C)c1 (stereo not drawn); 9000 nM
CCOP(=O)(OCC)C(Nc1ccc2ccccc2c1)c1cc(C(C)(C)C)c(O)c(C(C)(C)C)c1 (stereo not drawn); 2050 nM
CCCCOP(=O)(OCCCC)C(Nc1ccc(Cl)c(Cl)c1)c1cc(C(C)(C)C)c(O)c(C(C)(C)C)c1 (stereo not drawn); > 10000 nM
CCOP(=O)(OCC)C(Nc1ccccn1)c1cc(C(C)(C)C)c(O)c(C(C)(C)C)c1 (stereo not drawn); 2300 nM

The reported IC50 of the molecule CCCCOP(=O)(OCCCC)C(NCc1ccc2c(c1)OCO2)c1cc(C(C)(C)C)c(O)c(C(C)(C)C)c1 (stereo not drawn) was 2180 nM

The reported IC50 of the molecule CCCCOP(=O)(OCCCC)C(Nc1ccc2c(c1)OCO2)c1cc(C(C)(C)C)c(O)c(C(C)(C)C)c1 (stereo not drawn) was 240 nM

The reported IC50 of the molecule CCCCNC(c1cc(C(C)(C)C)c(O)c(C(C)(C)C)c1)P(=O)(OCC)OCC (stereo not drawn) was 2250 nM

* * *

Test system: Rattenlebermikrosomen
Test: Inhibition of microsomal lipid peroxidation (malondialdehyde/thiobarbituric acid)
Type: biochemical, Ratte
Settings: rat liver microsomes, FeSO₄ start, 10 min 37°C; read-out: IC50 Mikrosomale Lipidperoxidation
reported-property: pIC50
Scale: pIC50 equals -log10([C]), with [C] in mol/L.

CCOP(=O)(OCC)C(NC1CCN(Cc2ccccc2)CC1)c1cc(C(C)(C)C)c(O)c(C(C)(C)C)c1 (stereo not shown) [Beispiel 18]; 5.69
CCOP(=O)(OCC)C(Nc1ccccc1C(=O)OC)c1cc(C(C)(C)C)c(O)c(C(C)(C)C)c1 (stereo not shown) [Beispiel 65]; 6.14
CCOP(=O)(OCC)C(c1cc(C(C)(C)C)c(O)c(C(C)(C)C)c1)N1CCCCC1 (stereo not shown) [Beispiel 22]; 5.61

Now take the following molecule into account.
The reported pIC50 of the molecule COP(=O)(OC)C(Nc1ccc(Cl)cc1)c1cc(C(C)(C)C)c(O)c(C(C)(C)C)c1 (stereo not shown) [Beispiel 43] was 6.10

* * *

Tested on: Chondrozyten
Assay: IL-1-induced chondrocytic chondrolysis in chondrocyte agarose culture, 35S-sulfate incorporation
Conditions: agarose cell culture with 5 u/ml human rec. IL-1 alpha; factor relative to IL-1 treated control
reported-property: Stimulationsfaktor der Proteoglykansynthese

Worked examples follow.
CCOP(=O)(OCC)C(Nc1ccc(OC)c(OC)c1)c1cc(C(C)(C)C)c(O)c(C(C)(C)C)c1 (stereo not shown); 1,2
CCOP(=O)(OCC)C(Nc1ccc(C=CC(=O)OC)cc1)c1cc(C(C)(C)C)c(O)c(C(C)(C)C)c1 (stereo not shown); 1,9

The reported Stimulationsfaktor der Proteoglykansynthese of the molecule CCOP(=O)(OCC)C(Nc1ccc(NC(c2cc(C(C)(C)C)c(O)c(C(C)(C)C)c2)P(=O)(OCC)OCC)cc1)c1cc(C(C)(C)C)c(O)c(C(C)(C)C)c1 (stereo not shown) was 3,8

The reported Stimulationsfaktor der Proteoglykansynthese of the molecule CCCCOP(=O)(OCCCC)C(NC1CCCCC1)c1cc(C(C)(C)C)c(O)c(C(C)(C)C)c1 (stereo not shown) was 1,5

The reported Stimulationsfaktor der Proteoglykansynthese of the molecule COP(=O)(OC)C(Nc1ccc(Cl)cc1)c1cc(C(C)(C)C)c(O)c(C(C)(C)C)c1 (stereo not shown) was 1,4

The reported Stimulationsfaktor der Proteoglykansynthese of the molecule CCOP(=O)(OCC)C(Nc1ccc2c(c1)OCO2)c1cc(C(C)(C)C)c(O)c(C(C)(C)C)c1 (stereo not shown) was 1,3

The reported Stimulationsfaktor der Proteoglykansynthese of the molecule CCOP(=O)(OCC)C(c1cc(C(C)(C)C)c(O)c(C(C)(C)C)c1)N(C)c1ccccc1 (stereo not shown) was 1,7

The reported Stimulationsfaktor der Proteoglykansynthese of the molecule CCCOP(=O)(OCCC)C(Nc1ccc(Cl)cc1)c1cc(C(C)(C)C)c(O)c(C(C)(C)C)c1 (stereo not shown) was 1,5

The reported Stimulationsfaktor der Proteoglykansynthese of the molecule CCOP(=O)(OCC)C(NCc1ccc(C#N)cc1)c1cc(C(C)(C)C)c(O)c(C(C)(C)C)c1 (stereo not shown) was 3,9

The reported Stimulationsfaktor der Proteoglykansynthese of the molecule CCCCOP(=O)(OCCCC)C(Nc1ccc(Cl)cc1)c1cc(C(C)(C)C)c(O)c(C(C)(C)C)c1 (stereo not shown) was 1,2

The reported Stimulationsfaktor der Proteoglykansynthese of the molecule CCOP(=O)(OCC)C(NCc1ccc2c(c1)OCO2)c1cc(C(C)(C)C)c(O)c(C(C)(C)C)c1 (stereo not shown) was 1,5

The reported Stimulationsfaktor der Proteoglykansynthese of the molecule CCOP(=O)(OCC)C(Nc1ccc(Cl)c(Cl)c1)c1cc(C(C)(C)C)c(O)c(C(C)(C)C)c1 (stereo not shown) was 1,7

The reported Stimulationsfaktor der Proteoglykansynthese of the molecule CCOP(=O)(OCC)C(Nc1ccc(S(N)(=O)=O)cc1)c1cc(C(C)(C)C)c(O)c(C(C)(C)C)c1 (stereo not shown) was 1,3

* * *

Attribute: Stimulationsfaktor der Proteoglykansynthese
Tested on: Chondrozyten
Assay: IL-1-induced chondrocytic chondrolysis in chondrocyte agarose culture, 35S-sulfate incorporation
Conditions: agarose cell culture with 5 u/ml human rec. IL-1 alpha; factor relative to IL-1 treated control

COP(=O)(OC)C(Nc1ccc2c(c1)OCO2)c1cc(C(C)(C)C)c(O)c(C(C)(C)C)c1 (stereo not shown) [Beispiel 60]; 1,4
CCCOP(=O)(OCCC)C(Nc1ccc2c(c1)OCO2)c1cc(C(C)(C)C)c(O)c(C(C)(C)C)c1 (stereo not shown) [Beispiel 62]; 1,2
CCCCOP(=O)(OCCCC)C(Nc1ccc2c(c1)OCO2)c1cc(C(C)(C)C)c(O)c(C(C)(C)C)c1 (stereo not shown) [Beispiel 63]; 1,5

Now take the following compound into account.
The reported Stimulationsfaktor der Proteoglykansynthese of the compound CC(C)(C)c1cc(C(NCc2ccccc2)[PH](=O)O)cc(C(C)(C)C)c1O (stereo not shown) [Beispiel 27] was 1,2

* * *

Test system: Chondrozyten
Experiment: IL-1-induced chondrocytic chondrolysis in chondrocyte agarose culture, 35S-sulfate incorporation
Settings: agarose cell culture with 5 u/ml human rec. IL-1 alpha; factor relative to IL-1 treated control
Attribute: Stimulationsfaktor der Proteoglykansynthese

Worked examples follow.
CC(=O)Oc1cccc2c1C(=O)c1c(OC(C)=O)cc(C(=O)O)cc1C2=O [Diacerein, reference compound]; 1,1
CCCCOP(=O)(OCCCC)C(NCc1ccc2c(c1)OCO2)c1cc(C(C)(C)C)c(O)c(C(C)(C)C)c1 (stereo not shown) [Beispiel 31]; 1,7
COP(=O)(OC)C(NCc1ccc2c(c1)OCO2)c1cc(C(C)(C)C)c(O)c(C(C)(C)C)c1 (stereo not shown) [Beispiel 29]; 1,5

Tested on Chondrozyten, the item CCCCOP(=O)(OCCCC)C(Nc1ccc2ccccc2c1)c1cc(C(C)(C)C)c(O)c(C(C)(C)C)c1 (stereo not shown) [Beispiel 77] showed Stimulationsfaktor der Proteoglykansynthese equal to 1,3

Tested on Chondrozyten, the item CC(C)(C)c1cc(C(Nc2ccc3c(c2)OCO3)[PH](=O)O)cc(C(C)(C)C)c1O (stereo not shown) [Beispiel 3] showed Stimulationsfaktor der Proteoglykansynthese equal to 1,3

Tested on Chondrozyten, the item CCOP(=O)(OCC)C(NCc1ccc(Cl)cc1)c1cc(C(C)(C)C)c(O)c(C(C)(C)C)c1 (stereo not shown) [Beispiel 33] showed Stimulationsfaktor der Proteoglykansynthese equal to 2,2

Tested on Chondrozyten, the item CCOP(=O)(OCC)C(NC(C)C(=O)OC)c1cc(C(C)(C)C)c(O)c(C(C)(C)C)c1 (stereo not shown) [Beispiel 19] showed Stimulationsfaktor der Proteoglykansynthese equal to 4,3

* * *

Attribute: fold induction at 10 µM
Test system: Chondrozyten
Assay: Stimulation of cartilage matrix (proteoglycan) synthesis in chondrocyte agarose culture, 35S-sulfate incorporation
Format: cell-based, Rinder
Conditions: Chondrocyte, read-out: Stimulationsfaktor der Proteoglykansynthese
Please respond with just the number, no unit label.

CCOP(=O)(OCC)C(Nc1ccc(C(F)(F)F)cc1)c1cc(C(C)(C)C)c(O)c(C(C)(C)C)c1 (centres unmarked); 1.6

The reported fold induction at 10 µM of the molecule CCOP(=O)(OCC)C(Nc1ccc(F)cc1)c1cc(C(C)(C)C)c(O)c(C(C)(C)C)c1 (centres unmarked) was 1.7

The reported fold induction at 10 µM of the molecule CCCCNC(c1cc(C(C)(C)C)c(O)c(C(C)(C)C)c1)P(=O)(OCC)OCC (centres unmarked) was 1.2

The reported fold induction at 10 µM of the molecule CCOP(=O)(OCC)C(Nc1ccccn1)c1cc(C(C)(C)C)c(O)c(C(C)(C)C)c1 (centres unmarked) was 1.6

The reported fold induction at 10 µM of the molecule CCOP(=O)(OCC)C(Nc1cc(C(F)(F)F)ccc1F)c1cc(C(C)(C)C)c(O)c(C(C)(C)C)c1 (centres unmarked) was 1.7

The reported fold induction at 10 µM of the molecule CCOP(=O)(OCC)C(Nc1ccc(OC)cc1)c1cc(C(C)(C)C)c(O)c(C(C)(C)C)c1 (centres unmarked) was 1.5

The reported fold induction at 10 µM of the molecule CCOP(=O)(OCC)C(NCc1ccc(N)cc1)c1cc(C(C)(C)C)c(O)c(C(C)(C)C)c1 (centres unmarked) was 1.2
